TARGET_DESC: NLRP3 (Homo sapiens)
Construct: purified human His-GFP-NLRP3; NACHT domain mapped by DARTS
Sequence (Q96P20 whole entry, the tested form may be a part): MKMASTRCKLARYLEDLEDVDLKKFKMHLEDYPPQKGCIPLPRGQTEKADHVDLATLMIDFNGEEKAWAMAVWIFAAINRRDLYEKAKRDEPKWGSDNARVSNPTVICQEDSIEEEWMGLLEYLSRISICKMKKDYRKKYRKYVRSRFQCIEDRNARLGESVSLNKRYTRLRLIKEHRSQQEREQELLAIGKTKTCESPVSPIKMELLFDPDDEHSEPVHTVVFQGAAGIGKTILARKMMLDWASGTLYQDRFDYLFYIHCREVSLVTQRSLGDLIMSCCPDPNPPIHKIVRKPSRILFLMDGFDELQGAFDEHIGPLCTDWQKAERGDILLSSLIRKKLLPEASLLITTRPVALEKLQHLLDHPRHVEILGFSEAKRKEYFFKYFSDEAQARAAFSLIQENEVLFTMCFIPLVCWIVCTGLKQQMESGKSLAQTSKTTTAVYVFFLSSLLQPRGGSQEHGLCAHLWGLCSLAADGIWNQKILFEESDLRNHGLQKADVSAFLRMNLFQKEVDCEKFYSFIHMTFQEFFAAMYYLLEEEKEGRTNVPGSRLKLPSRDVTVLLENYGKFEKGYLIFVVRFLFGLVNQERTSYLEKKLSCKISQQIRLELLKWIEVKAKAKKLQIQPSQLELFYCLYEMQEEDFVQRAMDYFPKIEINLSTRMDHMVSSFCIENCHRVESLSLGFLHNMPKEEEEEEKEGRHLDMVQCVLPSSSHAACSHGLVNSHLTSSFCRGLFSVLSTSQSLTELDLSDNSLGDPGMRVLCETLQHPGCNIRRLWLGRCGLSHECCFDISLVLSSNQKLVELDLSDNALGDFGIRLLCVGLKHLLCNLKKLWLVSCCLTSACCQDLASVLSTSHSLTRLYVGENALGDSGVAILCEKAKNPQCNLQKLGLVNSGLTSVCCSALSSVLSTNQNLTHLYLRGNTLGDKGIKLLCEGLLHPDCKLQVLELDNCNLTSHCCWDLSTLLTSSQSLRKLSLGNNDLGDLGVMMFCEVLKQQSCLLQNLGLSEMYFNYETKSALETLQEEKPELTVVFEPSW
TEST_SUMMARY: microscale thermophoresis with purified GFP-NLRP3; DARTS and C409A mutation support
pKd: −log10 of the molar value.

[
  {
    "STRUCTURE_NOTATION": "O=C(CBr)NCc1ccc(C(F)(F)F)cc1",
    "pKd": 7.32
  }
]
